- ASSAY_TEXT: Abiotic loss in negative controls of the hepatocyte clearance assay (cell-free media, metabolically inactivated hepatocytes)
- Type: in vitro ADME
- REPORTED_CONDITIONS: flag for stability failure in hepatocyte clearance assay controls (1 or Fst = fail, 0 = pass)
EXPERIMENTAL_ENDPOINT: Hep_Stab_Fail

| MOLECULE | RESULT_NUMBER |
| --- | --- |
| FC(F)(I)C(F)(F)C(F)(F)C(F)(F)I [Perfluoro-1,4-diiodobutane] | 1 |
| CC(O)C(F)(F)C(F)(F)F (centres unmarked) [DTXSID70880134] | 1 |
| N=C(N)C(F)(F)C(F)(F)C(F)(F)C(F)(F)C(F)(F)C(F)(F)C(F)(F)F [Perfluorooctanamidine] | 1 |
| NC(=O)C(F)(F)C(F)(F)C(F)(F)F [Heptafluorobutyramide] | 0 |
| NC(=O)C(F)(F)C(F)(F)C(F)(F)C(F)(F)F [Nonafluoropentanamide] | 0 |
| CN(C(=O)C(F)(F)C(F)(F)C(F)(F)F)[Si](C)(C)C | 1 |
| C=CC(=O)OCCC(F)(F)C(F)(F)C(F)(F)C(F)(F)F [2-(Perfluorobutyl)ethyl acrylate] | 1 |
| FC(F)(Br)C(F)(F)C(F)(F)C(F)(F)C(F)(F)C(F)(F)Br [1,6-Dibromododecafluorohexane] | 1 |
| FC(F)(F)COC(OCC(F)(F)F)OCC(F)(F)F [tris(Trifluoroethoxy)methane] | 1 |
| OCC(F)(F)C(F)(F)C(F)(F)C(F)(F)C(F)(F)C(F)(F)C(F)(F)C(F)(F)CO [1H,1H,10H,10H-Perfluorodecane-1,10-diol] | 0 |
| C=CC(=O)OCC(F)(F)C(F)(F)C(F)(F)COC(=O)C=C | 1 |
